Values compiled from the supplement of paper PMC9233669.

- System: biotinyl-Met-oxazolone
- experimentSummary: self-aminoacylation, catalytic enhancement (BMO) (fold over background); higher = more active; k-Seq, kA / k0A0; sequences stand for … in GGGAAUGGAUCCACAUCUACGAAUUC…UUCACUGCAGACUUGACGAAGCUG
Fewer inactive variants are shown than the library holds.
Exercise: for every item that follows, state its recorded self-aminoacylation.
The answer should be a number; do not append a unit.

Please report the measured self-aminoacylation for AUUCACCAAGGGCAUCGGGUG [Fam2.2 aminoacylation ribozyme variant]
5.2

Give self-aminoacylation for AUUCGCCUUGGUCAUCGGGUG [Fam2.2 aminoacylation ribozyme variant]
8.81

Supply recorded self-aminoacylation for AUUCACCGUGGUCAUCGGGUG [Fam2.2 aminoacylation ribozyme variant] here.
9.04

Answer with the recorded self-aminoacylation for the sequence listed here: CUACUUCAGAUAAUCGGUCUG [Fam1A.1 aminoacylation ribozyme variant]
0.648

Provide measured self-aminoacylation value, entry: AUUCACCUAGGUCAUAGGGUA [Fam2.2 aminoacylation ribozyme variant]
0.923
